Molecular target: NT-3 growth factor receptor (Homo sapiens, UniProt Q16288)
Sequence (Q16288 whole entry): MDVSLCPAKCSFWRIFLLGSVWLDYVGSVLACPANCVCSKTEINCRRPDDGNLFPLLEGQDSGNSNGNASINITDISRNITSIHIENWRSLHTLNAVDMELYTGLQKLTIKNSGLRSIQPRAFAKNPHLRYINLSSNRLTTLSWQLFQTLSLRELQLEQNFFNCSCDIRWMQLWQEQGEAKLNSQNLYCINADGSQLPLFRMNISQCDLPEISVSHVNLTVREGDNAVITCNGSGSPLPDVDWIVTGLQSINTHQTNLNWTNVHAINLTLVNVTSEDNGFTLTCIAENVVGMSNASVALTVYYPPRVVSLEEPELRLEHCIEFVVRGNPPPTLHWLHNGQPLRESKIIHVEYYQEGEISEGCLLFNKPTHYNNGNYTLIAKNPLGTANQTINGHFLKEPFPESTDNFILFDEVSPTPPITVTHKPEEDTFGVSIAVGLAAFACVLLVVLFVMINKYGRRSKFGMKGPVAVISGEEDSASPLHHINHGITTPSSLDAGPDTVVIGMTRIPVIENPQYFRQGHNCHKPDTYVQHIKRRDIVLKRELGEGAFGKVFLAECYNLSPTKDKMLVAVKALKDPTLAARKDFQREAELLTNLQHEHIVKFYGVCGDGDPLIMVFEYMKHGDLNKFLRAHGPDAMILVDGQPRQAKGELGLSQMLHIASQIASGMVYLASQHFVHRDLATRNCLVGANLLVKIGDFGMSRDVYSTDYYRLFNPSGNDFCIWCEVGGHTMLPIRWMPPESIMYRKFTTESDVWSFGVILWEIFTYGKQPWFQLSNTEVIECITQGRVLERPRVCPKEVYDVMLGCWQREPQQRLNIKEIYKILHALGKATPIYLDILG
Experiment: Inhibition of recombinant human His-tagged cytoplasmic NTRK3 expressed in baculovirus expression system by Z'-LYTE assay
Entries and their measured IC50 follow.

>  <Compound>
Cn1cc(-c2cnc3c(-c4csc(C(=O)NCC(F)(F)F)c4)cnn3c2)cn1

>  <Target Of Assay>
NT-3 growth factor receptor (Homo sapiens, UniProt Q16288)

>  <Units>
nM

>  <IC50>
120

$$$$
>  <Compound>
O=C(NCC(F)(F)F)c1cc(-c2cnn3cc(-c4ccc(OCCN5CCCCC5)cc4)cnc23)cs1

>  <Target Of Assay>
NT-3 growth factor receptor (Homo sapiens, UniProt Q16288)

>  <Units>
nM

>  <IC50>
380

$$$$
>  <Compound>
Cc1sc(C(=O)N[C@@H]2[C@H](N)CCCC2(F)F)cc1-c1cnn2cc(Cl)cnc12

>  <Target Of Assay>
NT-3 growth factor receptor (Homo sapiens, UniProt Q16288)

>  <Units>
nM

>  <IC50>
1400

$$$$
>  <Compound>
Cn1cc(-c2cnc3c(-c4csc(C(=O)N[C@@H]5CCCC[C@@H]5N)c4)cnn3c2)cn1 (racemic)

>  <Target Of Assay>
NT-3 growth factor receptor (Homo sapiens, UniProt Q16288)

>  <Units>
nM

>  <IC50>
13

$$$$

====

Entries and their measured pIC50 follow.
Biological target: Insulin-like growth factor 1 receptor (Homo sapiens)
Sequence (P08069 31-736 limits assumed): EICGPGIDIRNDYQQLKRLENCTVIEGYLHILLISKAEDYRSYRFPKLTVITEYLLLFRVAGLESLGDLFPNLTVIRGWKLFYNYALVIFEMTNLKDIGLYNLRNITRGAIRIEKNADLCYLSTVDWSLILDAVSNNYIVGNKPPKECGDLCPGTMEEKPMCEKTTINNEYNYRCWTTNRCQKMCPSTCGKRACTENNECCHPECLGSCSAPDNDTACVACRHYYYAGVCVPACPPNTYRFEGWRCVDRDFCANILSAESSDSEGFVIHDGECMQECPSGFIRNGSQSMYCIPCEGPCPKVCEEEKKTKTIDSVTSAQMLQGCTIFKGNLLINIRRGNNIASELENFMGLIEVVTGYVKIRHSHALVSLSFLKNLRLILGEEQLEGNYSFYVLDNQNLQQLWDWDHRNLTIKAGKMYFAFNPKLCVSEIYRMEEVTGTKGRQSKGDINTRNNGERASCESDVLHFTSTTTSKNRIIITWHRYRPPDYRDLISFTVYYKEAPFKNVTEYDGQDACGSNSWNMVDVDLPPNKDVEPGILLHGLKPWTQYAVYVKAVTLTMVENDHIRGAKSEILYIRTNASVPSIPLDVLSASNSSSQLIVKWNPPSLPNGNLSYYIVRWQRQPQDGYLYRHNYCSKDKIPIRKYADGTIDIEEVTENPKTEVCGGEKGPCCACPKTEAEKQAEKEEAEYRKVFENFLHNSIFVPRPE
Sequence (P08069 741-1367 limits assumed): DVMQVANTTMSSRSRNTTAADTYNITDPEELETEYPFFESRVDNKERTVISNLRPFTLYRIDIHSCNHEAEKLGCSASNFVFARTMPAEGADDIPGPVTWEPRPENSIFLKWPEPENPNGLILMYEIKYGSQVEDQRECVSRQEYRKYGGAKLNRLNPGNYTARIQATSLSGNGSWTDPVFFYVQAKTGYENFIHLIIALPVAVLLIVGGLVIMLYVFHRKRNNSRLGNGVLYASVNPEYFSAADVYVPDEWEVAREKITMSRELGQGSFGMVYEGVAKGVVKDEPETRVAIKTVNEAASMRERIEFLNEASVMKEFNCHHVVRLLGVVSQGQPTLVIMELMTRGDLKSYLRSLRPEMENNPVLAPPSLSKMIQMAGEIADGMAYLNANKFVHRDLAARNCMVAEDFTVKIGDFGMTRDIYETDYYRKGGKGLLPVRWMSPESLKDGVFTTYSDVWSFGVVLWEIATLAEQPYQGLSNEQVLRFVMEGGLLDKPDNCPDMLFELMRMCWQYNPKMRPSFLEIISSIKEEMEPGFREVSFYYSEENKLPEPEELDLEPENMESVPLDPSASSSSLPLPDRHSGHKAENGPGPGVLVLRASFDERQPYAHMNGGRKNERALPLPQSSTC
Assay: Inhibition of recombinant human C-terminal His-tagged cytoplasmic IGF1R (960 to 1397 residues) expressed in baculovirus expression system by Z'-LYTE assay
pIC50: −log10 of the molar value.

>  <Compound>
Cc1sc(C(=O)N[C@@H]2[C@H](N)CCCC2(F)F)cc1-c1cnn2cc(Cl)cnc12

>  <pIC50>
< 4.00

$$$$
>  <Compound>
Cn1cc(-c2cnc3c(-c4csc(C(=O)N[C@@H]5CCCC[C@@H]5N)c4)cnn3c2)cn1 (racemic)

>  <pIC50>
5.55

$$$$
>  <Compound>
O=C(NCC(F)(F)F)c1cc(-c2cnn3cc(-c4ccc(OCCN5CCCCC5)cc4)cnc23)cs1

>  <pIC50>
< 4.00

$$$$
>  <Compound>
Cn1cc(-c2cnc3c(-c4csc(C(=O)NCC(F)(F)F)c4)cnn3c2)cn1

>  <pIC50>
< 4.00

$$$$

====

pIC50: −log10 of the molar value.
// endpoint pIC50 / system Glycogen synthase kinase-3 alpha (Homo sapiens, UniProt P49840)
Test Readout: pIC50

>  <Molecule>
Cn1cc(-c2cnc3c(-c4csc(C(=O)N[C@@H]5CCCC[C@@H]5N)c4)cnn3c2)cn1 (racemic)

>  <Reported Result>
7.38

$$$$
>  <Molecule>
Cn1cc(-c2cnc3c(-c4csc(C(=O)NCC(F)(F)F)c4)cnn3c2)cn1

>  <Reported Result>
6.89

$$$$
>  <Molecule>
O=C(NCC(F)(F)F)c1cc(-c2cnn3cc(-c4ccc(OCCN5CCCCC5)cc4)cnc23)cs1

>  <Reported Result>
6.44

$$$$
>  <Molecule>
Cc1sc(C(=O)N[C@@H]2[C@H](N)CCCC2(F)F)cc1-c1cnn2cc(Cl)cnc12

>  <Reported Result>
6.96

$$$$

====

Biological target: MAP kinase-activated protein kinase 5 (Homo sapiens, UniProt Q8IW41)
Sequence (Q8IW41 whole entry): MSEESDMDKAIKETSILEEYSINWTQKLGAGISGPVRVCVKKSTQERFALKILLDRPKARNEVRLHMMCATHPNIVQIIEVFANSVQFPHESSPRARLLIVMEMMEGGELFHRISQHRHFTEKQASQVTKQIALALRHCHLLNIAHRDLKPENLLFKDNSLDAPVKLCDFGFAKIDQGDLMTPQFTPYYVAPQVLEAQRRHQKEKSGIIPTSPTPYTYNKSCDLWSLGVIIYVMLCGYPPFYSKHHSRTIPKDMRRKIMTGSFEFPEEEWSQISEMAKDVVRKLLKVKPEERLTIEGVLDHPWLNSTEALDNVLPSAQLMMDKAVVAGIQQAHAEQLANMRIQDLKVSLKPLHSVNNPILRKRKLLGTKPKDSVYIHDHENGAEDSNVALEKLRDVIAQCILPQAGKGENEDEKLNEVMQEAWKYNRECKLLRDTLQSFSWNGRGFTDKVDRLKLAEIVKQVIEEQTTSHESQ
Experiment: Inhibition of full-length recombinant human His-tagged MAPKAPK5 expressed in baculovirus expression system by Z'-LYTE assay

>  <Molecule>
Cc1sc(C(=O)N[C@@H]2[C@H](N)CCCC2(F)F)cc1-c1cnn2cc(Cl)cnc12

>  <Operator Symbol>
>

>  <IC50 (µM)>
100

$$$$
>  <Molecule>
Cn1cc(-c2cnc3c(-c4csc(C(=O)NCC(F)(F)F)c4)cnn3c2)cn1

>  <Operator Symbol>
=

>  <IC50 (µM)>
19

$$$$
>  <Molecule>
O=C(NCC(F)(F)F)c1cc(-c2cnn3cc(-c4ccc(OCCN5CCCCC5)cc4)cnc23)cs1

>  <Operator Symbol>
=

>  <IC50 (µM)>
9.6

$$$$
>  <Molecule>
Cn1cc(-c2cnc3c(-c4csc(C(=O)N[C@@H]5CCCC[C@@H]5N)c4)cnn3c2)cn1 (racemic)

>  <Operator Symbol>
=

>  <IC50 (µM)>
1.4

$$$$

====

Molecular target: 3-phosphoinositide-dependent protein kinase 1 (Homo sapiens)
Sequence (O15530 whole entry): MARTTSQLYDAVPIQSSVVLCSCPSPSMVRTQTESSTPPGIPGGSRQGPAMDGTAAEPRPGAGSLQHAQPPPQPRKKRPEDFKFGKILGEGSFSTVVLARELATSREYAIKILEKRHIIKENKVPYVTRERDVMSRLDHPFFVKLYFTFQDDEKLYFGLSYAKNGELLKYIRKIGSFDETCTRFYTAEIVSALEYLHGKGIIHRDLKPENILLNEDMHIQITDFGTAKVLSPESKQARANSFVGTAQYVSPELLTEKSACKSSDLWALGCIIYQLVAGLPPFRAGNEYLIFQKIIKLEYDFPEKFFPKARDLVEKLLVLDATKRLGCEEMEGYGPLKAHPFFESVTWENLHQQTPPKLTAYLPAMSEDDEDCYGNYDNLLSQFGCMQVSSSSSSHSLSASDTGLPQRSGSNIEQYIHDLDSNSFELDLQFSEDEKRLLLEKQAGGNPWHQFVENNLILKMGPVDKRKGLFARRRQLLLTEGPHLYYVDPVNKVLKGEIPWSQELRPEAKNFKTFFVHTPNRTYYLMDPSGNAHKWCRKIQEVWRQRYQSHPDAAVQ
Assay: Inhibition of full-length recombinant human His-tagged PDK1 expressed in baculovirus expression system by Z'-LYTE assay
Entries and their measured IC50 follow.
Test Readout: IC50

>  <Molecule>
Cc1sc(C(=O)N[C@@H]2[C@H](N)CCCC2(F)F)cc1-c1cnn2cc(Cl)cnc12

>  <Reported Result>
330 nM

$$$$
>  <Molecule>
Cn1cc(-c2cnc3c(-c4csc(C(=O)N[C@@H]5CCCC[C@@H]5N)c4)cnn3c2)cn1 (racemic)

>  <Reported Result>
20 nM

$$$$
>  <Molecule>
Cn1cc(-c2cnc3c(-c4csc(C(=O)NCC(F)(F)F)c4)cnn3c2)cn1

>  <Reported Result>
53 nM

$$$$
>  <Molecule>
O=C(NCC(F)(F)F)c1cc(-c2cnn3cc(-c4ccc(OCCN5CCCCC5)cc4)cnc23)cs1

>  <Reported Result>
130 nM

$$$$

====

Target: Serine/threonine-protein kinase PLK1 (Homo sapiens)
Sequence (P53350 whole entry): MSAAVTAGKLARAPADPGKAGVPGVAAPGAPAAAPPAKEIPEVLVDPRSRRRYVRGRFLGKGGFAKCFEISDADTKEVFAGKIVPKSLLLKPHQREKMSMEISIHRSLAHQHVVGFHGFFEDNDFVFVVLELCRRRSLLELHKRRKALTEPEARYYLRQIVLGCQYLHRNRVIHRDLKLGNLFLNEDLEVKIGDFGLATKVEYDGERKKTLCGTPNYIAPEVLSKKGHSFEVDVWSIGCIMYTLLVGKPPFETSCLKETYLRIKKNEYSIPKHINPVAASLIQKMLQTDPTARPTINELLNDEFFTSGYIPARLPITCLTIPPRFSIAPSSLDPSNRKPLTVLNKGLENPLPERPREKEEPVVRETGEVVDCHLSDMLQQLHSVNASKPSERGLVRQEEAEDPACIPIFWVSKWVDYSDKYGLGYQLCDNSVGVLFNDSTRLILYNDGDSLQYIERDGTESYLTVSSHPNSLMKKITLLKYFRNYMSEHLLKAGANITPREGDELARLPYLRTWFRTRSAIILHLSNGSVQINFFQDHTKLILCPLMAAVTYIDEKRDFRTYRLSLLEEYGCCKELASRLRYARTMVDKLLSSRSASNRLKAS
Assay: Inhibition of full-length recombinant human His-tagged PLK1 expressed in baculovirus expression system by Z'-LYTE assay
pIC50: −log10 of the molar value.
Entries and their measured pIC50 follow.
Test Readout: pIC50

>  <Molecule>
Cc1sc(C(=O)N[C@@H]2[C@H](N)CCCC2(F)F)cc1-c1cnn2cc(Cl)cnc12

>  <Reported Result>
< 4.00

$$$$
>  <Molecule>
O=C(NCC(F)(F)F)c1cc(-c2cnn3cc(-c4ccc(OCCN5CCCCC5)cc4)cnc23)cs1

>  <Reported Result>
4.26

$$$$
>  <Molecule>
Cn1cc(-c2cnc3c(-c4csc(C(=O)NCC(F)(F)F)c4)cnn3c2)cn1

>  <Reported Result>
< 4.00

$$$$
>  <Molecule>
Cn1cc(-c2cnc3c(-c4csc(C(=O)N[C@@H]5CCCC[C@@H]5N)c4)cnn3c2)cn1 (racemic)

>  <Reported Result>
< 5.00

$$$$

====

Molecular target: Mitogen-activated protein kinase 8 (Homo sapiens)
Sequence (P45983 whole entry): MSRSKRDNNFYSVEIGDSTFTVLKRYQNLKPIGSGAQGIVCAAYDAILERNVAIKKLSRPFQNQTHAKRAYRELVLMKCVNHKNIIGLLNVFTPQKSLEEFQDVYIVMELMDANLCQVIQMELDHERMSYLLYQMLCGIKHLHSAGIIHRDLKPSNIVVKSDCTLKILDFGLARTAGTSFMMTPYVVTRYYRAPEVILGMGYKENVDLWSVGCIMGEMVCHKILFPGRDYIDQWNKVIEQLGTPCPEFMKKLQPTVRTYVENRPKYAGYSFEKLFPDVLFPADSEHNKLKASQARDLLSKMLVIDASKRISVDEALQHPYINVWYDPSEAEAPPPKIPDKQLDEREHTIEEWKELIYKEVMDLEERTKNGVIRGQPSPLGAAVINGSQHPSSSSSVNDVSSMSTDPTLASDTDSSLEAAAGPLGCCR
Experiment: Inhibition of full-length recombinant human His-tagged MAPK8 expressed in baculovirus expression system by Z'-LYTE assay

>  <Compound>
Cc1sc(C(=O)N[C@@H]2[C@H](N)CCCC2(F)F)cc1-c1cnn2cc(Cl)cnc12

>  <IC50 [µM]>
15

$$$$
>  <Compound>
Cn1cc(-c2cnc3c(-c4csc(C(=O)NCC(F)(F)F)c4)cnn3c2)cn1

>  <IC50 [µM]>
24

$$$$
>  <Compound>
O=C(NCC(F)(F)F)c1cc(-c2cnn3cc(-c4ccc(OCCN5CCCCC5)cc4)cnc23)cs1

>  <IC50 [µM]>
2.8

$$$$
>  <Compound>
Cn1cc(-c2cnc3c(-c4csc(C(=O)N[C@@H]5CCCC[C@@H]5N)c4)cnn3c2)cn1 (racemic)

>  <IC50 [µM]>
1.2

$$$$

====

Target: Dual specificity protein kinase CLK2 (Homo sapiens)
Sequence (P49760 whole entry, the tested form may be a part): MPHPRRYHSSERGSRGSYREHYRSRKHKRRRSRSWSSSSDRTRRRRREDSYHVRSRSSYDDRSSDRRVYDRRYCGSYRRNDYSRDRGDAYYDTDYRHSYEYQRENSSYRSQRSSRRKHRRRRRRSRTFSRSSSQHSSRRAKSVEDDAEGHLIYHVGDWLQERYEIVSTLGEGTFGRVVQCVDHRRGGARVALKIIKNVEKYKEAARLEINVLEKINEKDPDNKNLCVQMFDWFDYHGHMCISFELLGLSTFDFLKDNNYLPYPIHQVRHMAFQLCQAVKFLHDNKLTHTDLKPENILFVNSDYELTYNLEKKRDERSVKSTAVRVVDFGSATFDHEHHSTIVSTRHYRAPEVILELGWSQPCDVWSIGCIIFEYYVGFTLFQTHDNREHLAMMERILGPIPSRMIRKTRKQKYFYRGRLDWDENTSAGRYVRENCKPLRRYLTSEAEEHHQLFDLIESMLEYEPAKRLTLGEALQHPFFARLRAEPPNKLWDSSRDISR
Experiment: Inhibition of recombinant human GST-tagged CLK2 catalytic domain expressed in baculovirus expression system by Z'-LYTE assay
pIC50: −log10 of the molar value.
Entries and their measured pIC50 follow.
Test Readout: pIC50

>  <Compound>
Cc1sc(C(=O)N[C@@H]2[C@H](N)CCCC2(F)F)cc1-c1cnn2cc(Cl)cnc12

>  <Target Of Assay>
Dual specificity protein kinase CLK2 (Homo sapiens)

>  <Test Readout>
pIC50

>  <Operator Symbol>
=

>  <Reported Result>
6.96

$$$$
>  <Compound>
Cn1cc(-c2cnc3c(-c4csc(C(=O)NCC(F)(F)F)c4)cnn3c2)cn1

>  <Target Of Assay>
Dual specificity protein kinase CLK2 (Homo sapiens)

>  <Test Readout>
pIC50

>  <Operator Symbol>
>

>  <Reported Result>
8.00

$$$$
>  <Compound>
Cn1cc(-c2cnc3c(-c4csc(C(=O)N[C@@H]5CCCC[C@@H]5N)c4)cnn3c2)cn1 (racemic)

>  <Target Of Assay>
Dual specificity protein kinase CLK2 (Homo sapiens)

>  <Test Readout>
pIC50

>  <Operator Symbol>
=

>  <Reported Result>
7.85

$$$$
>  <Compound>
O=C(NCC(F)(F)F)c1cc(-c2cnn3cc(-c4ccc(OCCN5CCCCC5)cc4)cnc23)cs1

>  <Target Of Assay>
Dual specificity protein kinase CLK2 (Homo sapiens)

>  <Test Readout>
pIC50

>  <Operator Symbol>
>

>  <Reported Result>
8.00

$$$$
